- subjectOfTest: HLA-A*68:01
- procedureSummary: IEDB peptide-MHC binding, purified MHC/competitive/radioactivity; filed as Kd, often an IC50 or EC50 that approximates it; bounds were set here for any values at or beyond the usual limits of such assays
- measurementSetup: source organism: Plasmodium falciparum 3D7
assayReadout: log10 Kd (log10 of the value in nM)

> print(dat)
   biosequence  assayreadout  result
1    FISFYLINK      log10 Kd    1.26
2   SQVSNSDSYK      log10 Kd    3.14
3   SSFDIKSEVK      log10 Kd    1.49
4   LQMMNVNLQK      log10 Kd    2.51
5    LFDKDTFFK      log10 Kd    2.00

meta.source: the Immune Epitope Database (IEDB)
